These entries and their values trace back to patent US20230011916A1.

Each item that follows carries a reported Top(MFI).
Target: T1, full-length human OX40 expressed on HuT78 cells (HuT78/OX40) (human, UniProt P43489 29-277)
T1 sequence: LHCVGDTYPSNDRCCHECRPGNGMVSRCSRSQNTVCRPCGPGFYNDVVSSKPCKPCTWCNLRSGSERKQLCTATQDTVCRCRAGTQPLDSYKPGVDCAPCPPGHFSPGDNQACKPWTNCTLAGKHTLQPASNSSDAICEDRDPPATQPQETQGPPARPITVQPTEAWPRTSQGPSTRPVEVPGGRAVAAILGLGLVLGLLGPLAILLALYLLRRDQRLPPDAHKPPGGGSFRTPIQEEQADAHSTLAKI
Test: FACS; cells not named on the sheet, HuT78/OX40 cells as in Example 5
Quick reminder: number only, in MFI, skip the unit.

binder	value
445-3(Q62E/Q65K)-3(S24R) (antibody, V domains shown) VH: QVQLVQSGAEVKKPGSSVKVSCKASGYKFTSYIIHWVRQAPGQGLEWMGYINPYNEGTRYAEKFKGRVTLTADKSTSTAYMELSSLRSEDTAVYYCARGYYGSSYAMDYWGQGTTVTVSS VL: DIQMTQSPSSLSASVGDRVTITCRASQGISNYLNWYQQKPGKAIKLLIYDASTLYSGVPSRFSGSGSGTDFTLTISSLQPEDFATYYCQQYSKLPYTFGGGTKVEIK	790

Here's the next entry for you.
Provide measured Top(MFI) value, entry: 445-3 (antibody, V domains shown) VH: QVQLVQSGAEVKKPGSSVKVSCKASGYKFTSYIIHWVRQAPGQGLEWMGYINPYNEGTRYNQKFQGRVTLTADKSTSTAYMELSSLRSEDTAVYYCARGYYGSSYAMDYWGQGTTVTVSS VL: DIQMTQSPSSLSASVGDRVTITCRASQGISNYLNWYQQKPDGAIKLLIYDASTLYSGVPSRFSGSGSGTDFTLTISSLQPEDFATYYCQQYSKLPYTFGGGTKVEIK
990
